experiment: in vivo; set-up: species or system SD rats; conditions: male, SD, rat, po, 50 mg/kg
MEASURED_PROPERTY: AUC(0-t)
Number plus unit, in that order.

Note down AUC(0-t) recorded for COc1c(O)cc2c(c1O)[C@@H]1O[C@H](CO)[C@@H](O)[C@H](O)[C@H]1OC2=O [Bergenin, bergenin]
269 ng·h/mL

* * *

experiment: in vivo; design: species or system SD rats; conditions: male, SD, rat
MEASURED_PROPERTY: bioavailability (%)
Reply with just the number (in %).

Output measured bioavailability for this item: COc1c(O)cc2c(c1O)[C@@H]1O[C@H](CO)[C@@H](O)[C@H](O)[C@H]1OC2=O
3
